Each entry below lists one item and its recorded Tm value.
Measurement description: melting temperature; fluorescence melt of hairpins on a sequencing array, two-state fit, raised by 9.35 °C to match UV melts
Details: sodium 0.088 M
The reply must contain the numeric value and, after it, the unit.

// known answers, use as guide
>  <Sequence content>
GATCGTCATCACGATC ((((((....))))))

>  <Readout>
Tm

>  <Reading>
52.2 °C

$$$$
>  <Sequence content>
GGACTCGAAAGAGAATCC ((((((....)))..)))

>  <Readout>
Tm

>  <Reading>
28.8 °C

$$$$
>  <Sequence content>
GCCAGGCGAAAGCACGGC (((..((....))..)))

>  <Readout>
Tm

>  <Reading>
60.6 °C

$$$$
>  <Sequence content>
GATCCCGTGGGGATC ((((((...))))))

>  <Readout>
Tm

>  <Reading>
64.5 °C

$$$$
>  <Sequence content>
GCGTGTCTACGC ((((....))))

>  <Readout>
Tm

>  <Reading>
57.8 °C

$$$$
>  <Sequence content>
GCGTTAAACGC ((((...))))

>  <Readout>
Tm

>  <Reading>
50.9 °C

$$$$
>  <Sequence content>
GCACATCCGAAAGGATGC (((..(((....))))))

>  <Readout>
Tm

>  <Reading>
37.4 °C

$$$$
>  <Sequence content>
GGGCTTCGAAAGAATCCC (((.(((....))).)))

>  <Readout>
Tm

>  <Reading>
46.4 °C

$$$$

input: Name the recorded Tm for GATCGTTACCACGATC ((((((....)))))) .
output: 54.3 °C

input: For GGACGGGGAAACCCATCC (((.(((....))).))) , what is its reported Tm?
output: 41.7 °C

input: What value of Tm has been recorded for this entry: GCGTAAGGAAACTTGTGC ((..(((....)))..))
output: 29.7 °C

input: Which Tm reading was recorded for the sequence GTCCGAGGAAACTTGGAC ((((.((....)).)))) ?
output: 51 °C

input: Look at this sequence and give its reported Tm. GGTGCCGGAAACGGTACC (((.(((....))).)))
output: 64.1 °C

input: I'd like to know its Tm. The sequence in question is GATCGTACAACGATC ((((((...))))))
output: 56.5 °C

input: What value of measured Tm is listed for GATCGCTTGAGCGATC ((((((....)))))) ?
output: 67.6 °C

input: Requested field: Tm. Item: GTGGGGGAAACCCCAC ((((((....))))))
output: 68 °C

input: Find the recorded Tm belonging to CGACCGGAAACGGGCTCG ((((((....)))..))) and report it.
output: 35.8 °C

input: For the sequence GATCCTTGTCAGGATC ((((((....)))))) , what Tm is on record?
output: 50.1 °C

input: What does the record list as Tm for CGGCTCGGAAACGACCG (((.(((....)))))) ?
output: 50.9 °C

---

Measurement description: melting temperature; fluorescence melt of hairpins on a sequencing array, two-state fit, raised by 9.35 °C to match UV melts
Details: sodium 0.088 M
Recorded Tm, one value per entry.
Supply the numeric figure in °C, leaving out any unit text.

>  <Sequence content>
GTAGTCGAAAGACTAC ((((((....))))))

>  <Tm, °C>
64.1

$$$$

input: Item under review: GGCACAGGAAACTGTACC ((.((((....)))).)) . Reported Tm?
output: 44.3

input: Which Tm reading was recorded for the sequence GCTCAGCGAAAGCATAGC (((..((....))..))) ?
output: 38.5

input: Need Tm, item GGCCCGGGAAACCGAGCC (((.(((....))).)))
output: 54.2

input: Dear colleague, I am looking for the recorded Tm of the following sequence: GCAGTTGGAAACGACTGC (((((.(....).)))))
output: 55.3

input: Return reported Tm; argument: GGCTTTGGAAACGAAGTC (.(((.(....).))).)
output: 34.7

input: Request the reported Tm associated with GATCCAAACGTGGATC ((((((....))))))
output: 49

input: Look at this sequence and give its reported Tm. GTTTGTGGAAACATGAAC (((..((....))..)))
output: 31.6

input: Returns the measured Tm for the input sequence. Input: GCATACCGAAAGGTTTGC (((.(((....))).)))
output: 54.4

input: Return reported Tm; argument: GCACCGCGAAAGCGCTGC (((.(((....))).)))
output: 50.3

input: # lookup: Tm of GCTTCGGGAAACCGAGGC ((.((((....)))).))
output: 53.5

input: I have this sequence here, GACAGAGAAATCTGTC ((((((....)))))) , and I need its recorded Tm.
output: 50.9

input: What value of measured Tm is listed for GATCCTTGTTAGGATC ((((((....)))))) ?
output: 52.8

input: State the recorded Tm for this entry: GCGACGATTCGC ((((....))))
output: 44.6

input: What Tm value was documented for this sequence, GATCCACTAATGGATC ((((((....)))))) ?
output: 49.8

input: I am curious: what Tm value has been reported for GCTGATCGAAAGATGAGC (((.(((....))).))) ?
output: 48

input: Which Tm is listed for GGTGCGGGAAACCGCATC (.(((((....))))).) ?
output: 60.4

input: For GTGGTTTCGAAAGAACAC (((..(((....)))))) , what is its reported Tm?
output: 31.3

input: # input sequence: GCAGTAACGAAAGTTTGC (((..(((....)))))) ; wanted: its Tm
output: 37.6

input: Entry under review: GATCCTCGAAAGGATC ((((((....)))))) . Reported Tm?
output: 50.4

---

Measurement description: melting temperature; fluorescence melt of hairpins on a sequencing array, two-state fit, raised by 9.35 °C to match UV melts
Details: sodium 0.088 M
Readout: Tm
Hey, just the number and the unit after it is fine.

>  <Sequence content>
GCTCCGCGAAAGCAGGGC ((.(.((....)).).))

>  <Reading>
50.1 °C

$$$$

input: Could you tell me which Tm is on file for GATCGACCCATCGATC ((((((....)))))) ?
output: 51.5 °C

input: Sample GGAGTTCGAAAGAAATCC (((.(((....))).))) — what was its Tm?
output: 49.2 °C

input: Need Tm, item GCTCTCGAAAGAGGAGC ((((((....))).)))
output: 50.6 °C

input: Report Tm for GATCTCCGGCGAGATC ((((((....)))))) please.
output: 50.7 °C

input: Recorded Tm for GCTGGGCGAAAGCTGAGC (((..((....))..))) , please?
output: 49.3 °C

input: Recorded Tm of GTGGAAGGAAACTTCCGC (.(((((....))))).) , please.
output: 51.1 °C

input: Fill in: Tm of GTGCTGGCGAAAGCCCAC (((..(((....)))))) is ___
output: 49.3 °C

---

Measurement description: folding enthalpy; higher = less favourable; fluorescence melt of hairpins on a sequencing array, two-state fit
Details: sodium 0.088 M
Outcome label depends on folding enthalpy relative to -30 kcal/mol: at/above gives class 1, below gives class 0.

Solved entries:
>  <Sequence content>
GCCGTGCGAAAGCCAGGC (((..((....))..)))

>  <Qualitative label>
class 1

$$$$
>  <Sequence content>
GATGATGGAAACATCGTC ((.((((....)))).))

>  <Qualitative label>
class 0

$$$$
>  <Sequence content>
GATCCAAACGTGGATC ((((((....))))))

>  <Qualitative label>
class 0

$$$$
>  <Sequence content>
GTTATAGGAAACTATAAC (((((((....)))))))

>  <Qualitative label>
class 0

$$$$
>  <Sequence content>
GATCCTGGAAACAGGGTC ((.((((....)))).))

>  <Qualitative label>
class 0

$$$$
>  <Sequence content>
GATCGCGAAAGCGAAATC ((((((....)))..)))

>  <Qualitative label>
class 1

$$$$
>  <Sequence content>
GATCAGCAACTGATC ((((((...))))))

>  <Qualitative label>
class 0

$$$$
>  <Sequence content>
GGGAGCGAAAGCTTTCCC ((((((....)))..)))

>  <Qualitative label>
class 1

$$$$

input: Reported folding enthalpy reaches at least -30 kcal/mol for GATGTCGGAAACGATGTC ((..(((....)))..)) ?
output: class 0

input: Is folding enthalpy at least -30 kcal/mol? Consider GATCGTCCTCACGATC ((((((....))))))
output: class 0

input: Form field: folding enthalpy at least -30 kcal/mol? Entry: GTAGGCGAAAGCCGGTAC ((((((....)))..)))
output: class 1

input: Confirm if folding enthalpy reported for the sequence GCCTGGCGAAAGCCTAGC ((..(((....)))..)) is -30 kcal/mol or above.
output: class 1

input: Decide: folding enthalpy of GAGATGAAAATCTC (((((....))))) >= -30 kcal/mol?
output: class 1

input: Does folding enthalpy meet or surpass -30 kcal/mol for GATCTTATTCAAGATC ((((((....)))))) ?
output: class 0

input: folding enthalpy >= -30 kcal/mol for GCGGTTGGCCGC ((((....)))) ?
output: class 1

input: Given GATCGTCGCCACGATC ((((((....)))))) , state whether its folding enthalpy is at least -30 kcal/mol.
output: class 0

input: Assess whether reported folding enthalpy for GAGACGGGAAACCGTCCC (.(((((....))))).) sits at -30 kcal/mol or higher.
output: class 1

input: Determine whether measured folding enthalpy meets or exceeds -30 kcal/mol for GGGACTCGAAAGAGCCCC (((.(((....))).)))
output: class 0

input: Check this sequence for folding enthalpy at or above -30 kcal/mol: GCCTCCCGAAAGGGTGGC (((.(((....))).)))
output: class 0

input: Given the entry GATCTGTAAACAGATC ((((((....)))))) , answer whether its folding enthalpy meets or surpasses -30 kcal/mol.
output: class 0
